target: NRAS WT (Homo sapiens, UniProt P01111+P62937); experiment: Ras-Raf disruption / FRET / MOA assay (BRAF RBD); assay type: biochemical; details: NRAS WT; read-out: NRAS WT FRET data IC50
Sequence (P01111 whole entry): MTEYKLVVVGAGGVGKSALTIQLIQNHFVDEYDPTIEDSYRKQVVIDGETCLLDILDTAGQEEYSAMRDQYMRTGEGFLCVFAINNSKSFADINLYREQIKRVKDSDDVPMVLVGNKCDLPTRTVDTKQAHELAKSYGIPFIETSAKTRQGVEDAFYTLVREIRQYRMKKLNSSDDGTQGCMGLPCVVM
Sequence (P62937 whole entry): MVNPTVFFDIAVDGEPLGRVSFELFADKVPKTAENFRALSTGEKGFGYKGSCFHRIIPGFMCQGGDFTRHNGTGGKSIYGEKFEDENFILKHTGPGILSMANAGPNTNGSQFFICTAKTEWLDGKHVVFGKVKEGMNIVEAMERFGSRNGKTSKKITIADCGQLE
pIC50: −log10 of the molar value.
# pIC50 annotations

Example entries and their recorded answers appear below.
>  <compound>
CCn1c(-c2cccnc2[C@H](C)OC)c2c3cc(ccc31)-c1csc(n1)C[C@H](NC(=O)[C@H](C(C)C)N(C)C(=O)N1CCN(C(=O)[C@@H]3CN3)[C@H](C)C1)C(=O)N1CCC[C@H](N1)C(=O)OCC(C)(C)C2

>  <readout>
pIC50

>  <recorded_result>
6.00 to 7.00

$$$$
>  <compound>
CCn1c(-c2cccnc2[C@H](C)OC)c2c3cc(ccc31)-c1csc(n1)C[C@H](NC(=O)[C@H](C(C)C)N(C)C(=O)N1CC[C@H]1CN(C)C(=O)[C@@H]1CN1)C(=O)N1CCC[C@H](N1)C(=O)OCC(C)(C)C2

>  <readout>
pIC50

>  <recorded_result>
5.00 to 6.00

$$$$
>  <compound>
CCn1c(-c2cccnc2[C@H](C)OC)c2c3cc(ccc31)-c1cc(O)cc(c1)C[C@H](NC(=O)[C@H](C(C)C)N(C)C(=O)N(C)C1CN(C(=O)[C@H]3CN3)C1)C(=O)N1CCC[C@H](N1)C(=O)OCC(C)(C)C2 (atropisomer, axis not shown)

>  <readout>
pIC50

>  <recorded_result>
6.00 to 7.00

$$$$
>  <compound>
CCn1c(-c2cccnc2[C@H](C)OC)c2c3cc(ccc31)-c1csc(n1)C[C@H](NC(=O)[C@H](C(C)C)N(C)C(=O)N(C)CCN(C)C(=O)[C@@H]1CN1)C(=O)N1CCC[C@H](N1)C(=O)OCC(C)(C)C2 (atropisomer, axis not shown)

>  <readout>
pIC50

>  <recorded_result>
7.00 to 8.00

$$$$
>  <compound>
CCn1c(-c2cccnc2[C@H](C)OC)c2c3cc(ccc31)-c1cc(O)cc(c1)C[C@H](NC(=O)[C@@H](COC1CN(C(=O)[C@H]3CN3)C1)C(C)C)C(=O)N1CCC[C@H](N1)C(=O)OCC(C)(C)C2

>  <readout>
pIC50

>  <recorded_result>
6.00 to 7.00

$$$$

Form entry - test system: NRAS WT (Homo sapiens, UniProt P01111+P62937); read-out: pIC50; compound: CCn1c(-c2cccnc2[C@H](C)OC)c2c3cc(ccc31)-c1csc(n1)C[C@H](NC(=O)[C@H](C(C)C)N(C)C(=O)N(C)[C@H]1CCCN(C(=O)[C@H]3CN3)C1)C(=O)N1CCC[C@H](N1)C(=O)OCC(C)(C)C2 (atropisomer, axis not shown)
6.00 to 7.00

Form entry - test system: NRAS WT (Homo sapiens, UniProt P01111+P62937); read-out: pIC50; compound: CCn1c(-c2cccnc2[C@H](C)OC)c2c3cc(ccc31)-c1cc(O)cc(c1)C[C@H](NC(=O)[C@H](C(C)C)N(C)C(=O)N1CCN(C(=O)[C@@H]3CN3)CC1=O)C(=O)N1CCC[C@H](N1)C(=O)OCC(C)(C)C2 (atropisomer, axis not shown)
7.00 to 8.00
